Kindly state pKd for each of the entries shown.
Target: T1, Antibody 178-08_His 501.V2 (27079) (SARS-CoV-2, UniProt P0DTC2 14-685)
T1 construct: domain: S1; also called TB178-8
Test: Carterra SPR
Numbers only, as −log10 of the molar value.

8-3 (VHH, not shown: a dimerising Fc or GST) VHH: EVQLVESGGGLVQPGGSLRLSCAASGTTLDYYAMGWFRQAPGKEREFVAAISWSGGSTAYADSVKGRFTISADNSKNTAYLQMNSLKPEDTAVYYCAREDYYDSSGYSWGQGTLVTVSS	8.77

Field: next binder
(Q) Field request: pKd | item: 7-37 (VHH) VHH: EVQLVESGGGLVQPGGSLRLSCAASGSTLSINAMGWFRQAPGKEREFVAGITRSGSVTNYADSVKGRFTISADNSKNTAYLQMNSLKPEDTAVYYCAADGVPEYSDYASGPVWGQGTLVTVSS
(A) 6.91

Source listed as patent US20230265217A1.
